All values here come from patent US10519111B2.

λcrit values by entry
- test: Critical wavelength (λcrit), approximate in-house measurement
- Assay type: physicochemical
- measurement context: Table 8a

{"molecule": "C=CC(=O)C1=CN(c2ccccc2)CCC1(C)C [drawing 123]", "unit of measure": "nm", "λcrit": 373}
{"molecule": "C=CC(=O)C1=CN(c2ccc(OC)cc2)CCC1(C)C [drawing 128]", "unit of measure": "nm", "λcrit": 379}
{"molecule": "COc1ccc(N2C=C(C(=O)c3ccc(F)cc3)C(C)(C)CC2)cc1 [drawing 129]", "unit of measure": "nm", "λcrit": 369}
{"molecule": "CC1(C)CCN(c2ccccc2)C=C1C(=O)c1ccc(Br)cc1 [drawing 124]", "unit of measure": "nm", "λcrit": 366}
{"molecule": "CCC(=O)C1=CN(c2ccccc2)CCC1(C)C [drawing 122]", "unit of measure": "nm", "λcrit": 349}
{"molecule": "CCC(=O)C1=CN(c2ccc(OC)cc2)CCC1(C)C [drawing 127]", "unit of measure": "nm", "λcrit": 350}
